# DC50 annotations
assayed target: IKZF2 (Helios) (Homo sapiens, UniProt Q9UKS7)
Construct: Leu-Asp junction (codons ctcgac before the linker); mScarlet (behind P2A) (C, cleaved yes); expressed in transfected cells
Sequence (Q9UKS7 whole entry): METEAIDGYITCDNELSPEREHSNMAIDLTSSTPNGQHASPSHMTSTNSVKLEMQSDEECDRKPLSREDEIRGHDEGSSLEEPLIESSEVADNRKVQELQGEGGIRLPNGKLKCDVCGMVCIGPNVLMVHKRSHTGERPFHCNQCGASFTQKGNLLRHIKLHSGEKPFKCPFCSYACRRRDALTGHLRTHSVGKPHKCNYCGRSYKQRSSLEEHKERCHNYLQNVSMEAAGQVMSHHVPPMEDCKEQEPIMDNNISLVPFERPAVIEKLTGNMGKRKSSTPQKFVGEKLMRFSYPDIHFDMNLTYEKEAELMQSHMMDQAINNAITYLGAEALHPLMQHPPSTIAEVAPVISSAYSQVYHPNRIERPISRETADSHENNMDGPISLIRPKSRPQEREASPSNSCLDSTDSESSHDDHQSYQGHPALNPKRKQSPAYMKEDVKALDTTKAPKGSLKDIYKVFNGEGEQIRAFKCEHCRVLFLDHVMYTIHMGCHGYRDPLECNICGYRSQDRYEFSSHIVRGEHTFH
Sequence (Q96SW2 whole entry, further chain): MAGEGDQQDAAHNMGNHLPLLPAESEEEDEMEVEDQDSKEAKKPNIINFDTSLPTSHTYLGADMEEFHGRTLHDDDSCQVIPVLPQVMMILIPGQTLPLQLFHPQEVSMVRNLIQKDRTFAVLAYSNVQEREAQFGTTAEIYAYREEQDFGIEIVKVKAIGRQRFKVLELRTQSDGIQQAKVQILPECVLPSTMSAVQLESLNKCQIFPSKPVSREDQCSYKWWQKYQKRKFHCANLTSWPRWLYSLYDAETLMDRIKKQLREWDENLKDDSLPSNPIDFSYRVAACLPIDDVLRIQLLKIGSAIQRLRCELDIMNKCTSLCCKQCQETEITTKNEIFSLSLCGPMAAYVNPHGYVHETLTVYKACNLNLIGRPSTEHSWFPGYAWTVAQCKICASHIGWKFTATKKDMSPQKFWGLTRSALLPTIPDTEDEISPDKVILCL
Sequence (Q16531 whole entry partner): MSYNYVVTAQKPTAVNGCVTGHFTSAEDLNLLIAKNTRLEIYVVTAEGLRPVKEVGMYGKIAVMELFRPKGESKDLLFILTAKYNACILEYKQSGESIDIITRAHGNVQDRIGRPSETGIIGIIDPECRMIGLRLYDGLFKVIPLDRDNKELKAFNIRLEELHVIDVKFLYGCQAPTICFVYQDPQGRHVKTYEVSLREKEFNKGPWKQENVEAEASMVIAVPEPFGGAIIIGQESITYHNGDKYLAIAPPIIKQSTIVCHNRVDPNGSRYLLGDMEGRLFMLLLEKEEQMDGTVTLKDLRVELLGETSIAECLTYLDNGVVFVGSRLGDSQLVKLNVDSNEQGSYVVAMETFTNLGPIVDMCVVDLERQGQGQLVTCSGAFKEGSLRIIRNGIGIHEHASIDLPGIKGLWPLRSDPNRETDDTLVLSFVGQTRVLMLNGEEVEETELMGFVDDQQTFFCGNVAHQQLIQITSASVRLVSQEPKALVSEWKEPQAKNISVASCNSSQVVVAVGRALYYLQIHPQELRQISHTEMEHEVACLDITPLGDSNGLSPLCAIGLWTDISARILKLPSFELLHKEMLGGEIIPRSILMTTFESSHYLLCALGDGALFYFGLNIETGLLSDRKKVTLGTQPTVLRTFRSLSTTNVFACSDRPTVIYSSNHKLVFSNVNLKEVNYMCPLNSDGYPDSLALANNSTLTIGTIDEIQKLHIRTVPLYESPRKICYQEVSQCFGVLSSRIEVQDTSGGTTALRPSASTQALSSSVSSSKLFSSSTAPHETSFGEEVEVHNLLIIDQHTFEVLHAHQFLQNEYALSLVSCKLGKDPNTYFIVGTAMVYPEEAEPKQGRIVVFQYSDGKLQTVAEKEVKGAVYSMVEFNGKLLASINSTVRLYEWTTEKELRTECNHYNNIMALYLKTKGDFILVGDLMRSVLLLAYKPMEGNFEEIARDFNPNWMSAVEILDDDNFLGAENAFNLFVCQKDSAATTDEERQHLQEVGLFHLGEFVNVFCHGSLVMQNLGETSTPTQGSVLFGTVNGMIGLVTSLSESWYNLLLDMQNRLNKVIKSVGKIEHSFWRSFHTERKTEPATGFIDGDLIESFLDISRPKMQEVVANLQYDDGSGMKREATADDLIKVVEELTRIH
experimental protocol: IKZF2 reporter degradation assay (HEK 293T IKZF2-mNeonGreen reporter cell line)
Type: cell-based
settings: HEK 293T IKZF2 reporter cells, 24 hours incubation
measurement type: DC50 (nM)

{"compound": "O=C1CCC(N2Cc3cc(O[C@H]4CCCC[C@@H]4N4CC(C5CCOCC5)C4)ccc3C2=O)C(=O)N1 (stereo partly drawn)", "observed": 8.89}
{"compound": "Cc1cc(C2CN(C3CCCCC3Oc3ccc4c(c3)CN(C3CCC(=O)NC3=O)C4=O)C2)ccn1 (stereo not drawn)", "observed": 11.1}
{"compound": "O=C1CCC(N2Cc3cc(OC4CCCCC4N4CC(c5ccnc6ccccc56)C4)ccc3C2=O)C(=O)N1 (stereo not drawn)", "observed": 13.2}

---

assayed target: human E3 ligase component cereblon (CRBN) (Homo sapiens)
Sequence (Q96SW2 whole entry): as the sequence (Q96SW2 whole entry, further chain) above
Sequence (Q16531 whole entry partner): as the sequence (Q16531 whole entry partner) above
experimental protocol: Cereblon (CRBN) target engagement, NanoBRET TE Intracellular E3 Ligase Assay in transfected HEK-293T cells
settings: read-out: CRBN Binding EC50
pEC50: −log10 of the molar value.

{"molecule": "O=C1CCC(N2Cc3cc(O[C@H]4CCCC[C@@H]4N4CC(c5ccc(C(F)(F)F)nc5)C4)ccc3C2=O)C(=O)N1 (single isomer, unassigned) [Compound 127-B]", "pEC50": 7.59}
{"molecule": "N#CC1(C(=O)N2CCC(C3CN([C@H]4CCCC[C@@H]4Oc4ccc5c(c4)CN(C4CCC(=O)NC4=O)C5=O)C3)CC2)CCC1 (stereo partly drawn)", "pEC50": 8.40}
{"molecule": "O=C1CCC(N2Cc3cc(OC4CCCCC4N4CC(C(=O)N5CCCCC5)C4)ccc3C2=O)C(=O)N1 (single isomer, unassigned)", "pEC50": 7.51}
{"molecule": "O=C1CCC(N2Cc3cc(O[C@H]4CCCC[C@H]4N4CC(c5cncc(Cl)c5)C4)ccc3C2=O)C(=O)N1 (single isomer, unassigned) [Compound 115-B]", "pEC50": 7.19}
{"molecule": "O=C1CCC(N2Cc3cc(O[C@H]4CCCC[C@H]4N4CC(c5ccc6ccccc6n5)C4)ccc3C2=O)C(=O)N1 (stereo partly drawn)", "pEC50": 8.00}
{"molecule": "O=C1CCC(N2Cc3cc(OC4CCCC4N4CC(c5cncc(C(F)(F)F)c5)C4)ccc3C2=O)C(=O)N1 (stereo not drawn)", "pEC50": 7.25}

---

assayed target: IKZF3 (Aiolos) (Homo sapiens)
Construct: Leu-Asp junction (codons ctcgac before the linker); mScarlet (behind P2A) (C, cleaved yes); expressed in transfected cells
Sequence (Q9UKT9 whole entry, one chain of several): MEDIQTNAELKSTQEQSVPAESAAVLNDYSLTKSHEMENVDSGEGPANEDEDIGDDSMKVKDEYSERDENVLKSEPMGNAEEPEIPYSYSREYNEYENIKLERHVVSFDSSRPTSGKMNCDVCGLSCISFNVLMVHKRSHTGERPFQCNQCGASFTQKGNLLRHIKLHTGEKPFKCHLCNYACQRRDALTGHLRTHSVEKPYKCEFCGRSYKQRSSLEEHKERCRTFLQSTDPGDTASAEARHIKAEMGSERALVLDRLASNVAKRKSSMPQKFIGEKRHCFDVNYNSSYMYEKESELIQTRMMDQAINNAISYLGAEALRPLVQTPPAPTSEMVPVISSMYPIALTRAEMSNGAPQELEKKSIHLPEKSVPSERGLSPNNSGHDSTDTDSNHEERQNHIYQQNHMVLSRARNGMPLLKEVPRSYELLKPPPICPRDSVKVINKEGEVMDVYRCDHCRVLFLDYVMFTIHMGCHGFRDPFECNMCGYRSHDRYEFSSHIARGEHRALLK
experimental protocol: IKZF3 reporter degradation assay (HEK 293T IKZF3-mNeonGreen reporter cell line)
Format: cell-based
settings: HEK 293T IKZF3-mNeonGreen reporter, 24 hours incubation
Form field: DC50 (one value per entry).

{"compound": "O=C1CCC(N2Cc3cc(O[C@H]4CCCC[C@H]4N4CC(c5ccc6ccccc6n5)C4)ccc3C2=O)C(=O)N1 (stereo partly drawn)", "DC50": "> 30 µM"}
{"compound": "O=C1CCC(N2Cc3cc(O[C@H]4CCCC[C@@H]4N4CC(c5ccc(C(F)(F)F)nc5)C4)ccc3C2=O)C(=O)N1 (mixture of isomers) [Compound 191-B]", "DC50": "> 30 µM"}
{"compound": "Cc1cnc(C2CN([C@H]3CCCC3Oc3ccc4c(c3)CN(C3CCC(=O)NC3=O)C4=O)C2)o1 (mixture of isomers)", "DC50": "> 30 µM"}
{"compound": "O=C1CCC(N2Cc3cc(OC4CCC[C@@H]4N4CC(c5ccccn5)C4)ccc3C2=O)C(=O)N1 (mixture of isomers) [Compound 210-B]", "DC50": "> 30 µM"}
{"compound": "O=C1CCC(N2Cc3cc(O[C@@H]4CCC[C@@H]4N4CC(c5ccnc6ccccc56)C4)ccc3C2=O)C(=O)N1 (stereo partly drawn)", "DC50": "0.283 µM"}
{"compound": "O=C1CCC(N2Cc3cc(O[C@@H]4CCCC[C@@H]4N4CC(c5ccc(C(F)(F)F)cn5)C4)ccc3C2=O)C(=O)N1 (mixture of isomers)", "DC50": "> 30 µM"}
